Attribution: ChEMBL document CHEMBL3853340

assayComment: Cytotoxicity against human RMS13 cells assessed as cell growth inhibition after 24 hrs by cell titer-glo assay
Type: toxicity, cell-based
metricName: GI50 at 24 h (µM)

- CC1=C(C(=O)OCc2ccccc2)C(c2ccc(-c3ccccc3)cc2)NC(=O)N1Cc1ccc(-c2nnn[nH]2)cc1 (stereo not given): 96
- CC1=C(C(=O)OCc2ccccc2)C(c2ccc(-c3ccccc3)cc2)N(Cc2ccc(-c3nnn[nH]3)cc2)C(=S)N1 (stereo not given): 72
- CC1=C(C(=O)OCc2ccccc2)C(c2ccc(-c3ccccc3C)cc2)NC(=S)N1CCCCCc1nnn[nH]1 (stereo not given): 100
- CC1=C(C(=O)OCc2ccccc2)C(c2ccc(-c3ccccc3C)cc2)NC(=O)N1Cc1ccc(-c2nnn[nH]2)cc1 (stereo not given): 73
- CC1=C(C(=O)OCc2ccccc2)C(c2ccc(-c3ccccc3C)cc2)NC(=O)N1CCCCCc1nnn[nH]1 (stereo not given): 100

* * *

This section presents compounds with their documented CC50 at 168 h values.
assayComment: Cytotoxicity against BK polyomavirus Gardner infected-human HFF cells assessed as reduction in cell viability after 7 days by cell titer-glo assay
Type: toxicity, cell-based
setupConditions: HFF cells infected with BK polyomavirus Gardner
metricName: CC50 at 168 h

• Nc1ccn(C[C@@H](CO)OCP(=O)(O)O)c(=O)n1.O.O [CIDOFOVIR] = > 100 µM
• CC1=C(C(=O)OCc2ccccc2)C(c2ccc(-c3ccccc3)cc2)NC(=O)N1CCCCCc1nnn[nH]1 (configuration not stated) = > 67 µM

* * *

assayComment: Cytotoxicity against human RMS13 cells assessed as cell growth inhibition after 24 hrs by cell titer-glo assay
Format: toxicity, cell-based
Listed molecules paired with reported GI50 at 24 h
metricName: GI50 at 24 h (µM)

• CC1=C(C(=O)OCc2ccccc2)C(c2ccc(-c3ccccc3C)cc2)N(Cc2ccc(-c3nnn[nH]3)cc2)C(=S)N1 (stereo not drawn) = 62
• CC1=C(C(=O)OCc2ccccc2)C(c2ccc(-c3ccccc3)cc2)NC(=O)N1CCCCCC(=O)O (stereo not drawn) = 120
• CC1=C(C(=O)OCc2ccccc2)C(c2ccc(-c3ccccc3)cc2)NC(=S)N1Cc1ccc(-c2nnn[nH]2)cc1 (stereo not drawn) = 87
• CC1=C(C(=O)OCc2ccccc2)C(c2ccc(-c3ccccc3)cc2)NC(=S)N1CCCCCC(=O)O (stereo not drawn) = 100
• CCCCCCN(C(=O)CCCCCN1C(=O)NC(c2ccc(-c3ccccc3)cc2)C(C(=O)OCc2ccccc2)=C1C)C(C(=O)NCCCC)c1ccc(OCC(=O)OC)c(C(=O)OC)c1 (stereo not drawn) = 13
• CC1=C(C(=O)OCc2ccccc2)C(c2ccc(-c3ccccc3)cc2)N(CCCCCC(=O)O)C(=S)N1 (stereo not drawn) = 110
• CC1=C(C(=O)OCc2ccccc2)C(c2ccc(-c3ccccc3)cc2)NC(=S)N1CCCCCc1nnn[nH]1 (stereo not drawn) = 110
• CC1=C(C(=O)OCc2ccccc2)C(c2ccc(-c3ccccc3C)cc2)NC(=S)N1Cc1ccc(-c2nnn[nH]2)cc1 (stereo not drawn) = 68

* * *

Measured CC50 by item
assayComment: Cytotoxicity against JC polyomavirus MAD-4 infected grivet COS7 cells assessed as reduction in cell viability after 7 days by cell titer-glo assay
Assay type: toxicity, cell-based
setupConditions: chlorocebus aethiops, cos-7, 168 h
metricName: CC50

- CC1=C(C(=O)OCc2ccccc2)C(c2ccc(-c3ccccc3)cc2)N(Cc2ccc(-c3nnn[nH]3)cc2)C(=S)N1 (centres undefined): 18 µM
- Nc1ccn(C[C@@H](CO)OCP(=O)(O)O)c(=O)n1.O.O [CIDOFOVIR]: 49 µM
- CC1=C(C(=O)OCc2ccccc2)C(c2ccc(-c3ccccc3)cc2)NC(=O)N1CCCCCc1nnn[nH]1 (centres undefined): 24 µM
- CC1=C(C(=O)OCc2ccccc2)C(c2ccc(-c3ccccc3C)cc2)NC(=O)N1Cc1ccc(-c2nnn[nH]2)cc1 (centres undefined): 21 µM
